Test: Oral bioavailability in mouse at 24.6 mg/kg and measured up to 24 hrs by LC/MS analysis
Type: ADME, organism-based
Settings: in vivo
OBSERVABLE: bioavailability (%)
Give the value, in units of %, as a plain number.

# lookup: bioavailability of C[C@H]1Cc2c([nH]c3cc(Cl)c(F)cc23)[C@@]2(N1)C(=O)Nc1ccc(Cl)cc12
100

###

Experiment: AUC in Beagle dog at 1 mg/kg, iv by LC-MS analysis
Type: ADME, organism-based, Canis lupus familiaris
Details: in vivo
OBSERVABLE: AUC

Quick check: AUC of Cc1cc(Nc2ccc(S(F)(F)(F)(F)F)cc2)n2nc(C(C)(F)F)nc2n1 ?
16700 to 46900 ng·h/mL

###

Assay: Half life in Wistar Hannover rat at 5 mg/kg, iv by LC-MS/MS analysis
Conditions: in vivo
OBSERVABLE: half-life (h)
Express your answer in h, writing the number without its unit.

Consider the compound C[C@H]1Cc2c([nH]c3cc(Cl)c(F)cc23)[C@@]2(N1)C(=O)Nc1ccc(Cl)cc12 and give its measured half-life.
8.2

###

Assay: Half life in human at 5 to 120 mg,po in fed condition
Assay type: ADME
Details: in vivo
OBSERVABLE: half-life (h)
Value expressed in h; do not type the unit.

Recorded half-life for CS(=O)(=O)c1ccc(-c2cnc(N)c(-c3ccc(C(F)(F)F)nc3)c2)cc1 , please?
210

###

Assay: AUC in human at 5 to 120 mg,po in fast condition
Assay type: ADME
Conditions: in vivo
OBSERVABLE: AUC (ng·h/mL)
Express your answer in ng·h/mL, writing the number without its unit.

Requested read-out: AUC. Entry: CS(=O)(=O)c1ccc(-c2cnc(N)c(-c3ccc(C(F)(F)F)nc3)c2)cc1 [MMV-048]
21000

###

Experiment: Apparent clearance in human at 10 to 1200 mg and measured up to 360 hrs by LC-MS/MS method
Format: ADME
Details: in vivo, read-out: CL(app)
OBSERVABLE: clearance

Look up clearance for this compound: CC1(C)c2nc(-c3ccc(F)cc3)c(Nc3ccc(F)cc3)n2CCN1C(=O)CN [GANAPLACIDE]
267 to 583 mL/min
